- SYSTEM: human μ opiate receptor (Homo sapiens)
- Construct: purchased PerkinElmer Life Sciences, Zaventem, Belgium RB-HOM; host or cells: CHO-K1 cells (membrane preparation)
- Sequence (P35372 whole entry): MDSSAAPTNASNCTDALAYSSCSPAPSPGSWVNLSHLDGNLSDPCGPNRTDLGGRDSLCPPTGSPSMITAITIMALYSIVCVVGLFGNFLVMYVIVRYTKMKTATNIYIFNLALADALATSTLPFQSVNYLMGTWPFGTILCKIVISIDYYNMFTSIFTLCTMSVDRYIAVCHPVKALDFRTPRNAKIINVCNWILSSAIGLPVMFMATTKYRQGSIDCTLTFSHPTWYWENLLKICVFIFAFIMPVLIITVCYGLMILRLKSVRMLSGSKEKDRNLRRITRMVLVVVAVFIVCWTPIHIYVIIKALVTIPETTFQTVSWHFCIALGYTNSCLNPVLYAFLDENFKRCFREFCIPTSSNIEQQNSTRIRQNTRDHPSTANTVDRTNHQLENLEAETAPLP
- RUN DESCRIPTION: Affinity for the human μ opiate receptor ([3H]-naloxone displacement, CHO-K1 receptor membrane preparation, SPA)
- Format: binding
- MEASUREMENT PARAMETERS: test concentration of 1 μM
- Protocol: Binding data of the compounds on the μ opioid receptor and data on the inhibition of reuptake of serotonin (5-HT) are given in Table 1. The data for the μ receptor were measured at a test concentration of 1 μM, and those for the serotonin reuptake at 10 μM. The values are stated in % inhibition. […] The receptor affinity for the human p opiate receptor is determined in a homogeneous set-up in microtitre plates. […]
REPORTED METRIC: μ (binding on the μ opioid receptor, % inhibition)

Quote human μ opiate receptor (Homo sapiens) μ (binding on the μ opioid receptor, % inhibition) for entry CN(C)C(c1ccc(Cl)cc1)C1CCC(CCNC(=O)COCCC2CCN(S(=O)(=O)c3ccccc3)CC2)CC1 (stereo not shown) . 23%

Tell me μ (binding on the μ opioid receptor, % inhibition) of CN(C)C(c1ccccc1)C1CCC(NC(=O)COCCN(C)S(=O)(=O)c2cccc(C(F)(F)F)c2)CC1 (stereo not shown) when tested on human μ opiate receptor (Homo sapiens). 91%

# lookup: human μ opiate receptor (Homo sapiens) μ (binding on the μ opioid receptor, % inhibition), key = COc1cc(C)c(S(=O)(=O)N(C)CCOCC(=O)NCC2CCC(C(CCc3ccccc3)N(C)C)CC2)c(C)c1 (stereo not shown) 31%

Report μ (binding on the μ opioid receptor, % inhibition) on human μ opiate receptor (Homo sapiens) for this entry: COc1ccc(S(=O)(=O)N(C)CCOCC(=O)NCC2CCC(C(c3ccccc3)N(C)C)CC2)cc1 (stereo not shown) 77%

Please report μ (binding on the μ opioid receptor, % inhibition) with human μ opiate receptor (Homo sapiens) for item COc1cc(C)c(S(=O)(=O)N2CCC(OCC(=O)NCC3CCC(C(c4ccc(Cl)cc4)N(C)C)CC3)CC2)c(C)c1C (stereo not shown) . 36%

Please indicate recorded μ (binding on the μ opioid receptor, % inhibition) of CN(C)C(c1ccc(F)cc1)C1CCC(CNC(=O)COC2CCN(S(=O)(=O)c3ccc(Cl)cc3)C2)CC1 (stereo not shown) measured with human μ opiate receptor (Homo sapiens). 40%

Report value only: μ (binding on the μ opioid receptor, % inhibition), human μ opiate receptor (Homo sapiens), COc1cc(C)c(S(=O)(=O)N(C)CCOCC(=O)NC2CCC(C(c3ccccc3)N(C)C)CC2)c(C)c1 (stereo not shown) 38%

Data provenance: patent US8106055B2
